# System: HepG2
# assay_text: Antiproliferative activity against human HepG2 cells after 72 hrs by MTT assay
# Type: functional, cell-based
# condition_details: HepG2, 72 h
measure: IC50 (µM)
Kindly answer with a numeric value in µM, unit omitted.

Worked examples, 8 molecules total:
molecule	unit_abbreviation	IC50
C=C(C)[C@@H]1CC[C@]2(C(=O)N3CCC[C@H]3C(=O)O)CC[C@]3(C)[C@H](CC[C@@H]4[C@@]5(C)CC[C@H](O)[C@@](C)(CO)[C@@H]5CC[C@]43C)[C@@H]12	µM	72.2
C=C(CO)[C@@H]1CC[C@]2(C(=O)N3CCOCC3)CC[C@]3(C)[C@H](CC[C@@H]4[C@@]5(C)CC[C@H](OC(C)=O)[C@@](C)(COC(C)=O)[C@@H]5CC[C@]43C)[C@@H]12	µM	20.7
C=C(CO)[C@@H]1CC[C@]2(C(=O)OC(C)C)CC[C@]3(C)[C@H](CC[C@@H]4[C@@]5(C)CC[C@H](O)[C@@](C)(CO)[C@@H]5CC[C@]43C)[C@@H]12	µM	21
C=C(C)[C@@H]1CC[C@]2(C(=O)OC/C=C/CO)CC[C@]3(C)[C@H](CC[C@@H]4[C@@]5(C)CC[C@H](O)[C@@](C)(CO)[C@@H]5CC[C@]43C)[C@@H]12	µM	38
C=C(C)[C@@H]1CC[C@]2(C(=O)NCCN)CC[C@]3(C)[C@H](CC[C@@H]4[C@@]5(C)CC[C@H](OC(C)=O)[C@@](C)(COC(C)=O)[C@@H]5CC[C@]43C)[C@@H]12	µM	7.99
C=C(C)[C@@H]1CC[C@]2(C(=O)NCCCCn3nnc(-c4ccccn4)n3)CC[C@]3(C)[C@H](CC[C@@H]4[C@@]5(C)CC[C@H](OC(C)=O)[C@@](C)(COC(C)=O)[C@@H]5CC[C@]43C)[C@@H]12	µM	3.91
C=C(C)[C@@H]1CC[C@]2(C(=O)N3CCC[C@H]3C(=O)OC)CC[C@]3(C)[C@H](CC[C@@H]4[C@@]5(C)CC[C@H](OC(C)=O)[C@@](C)(COC(C)=O)[C@@H]5CC[C@]43C)[C@@H]12	µM	9.78
C=C(C)[C@@H]1CC[C@]2(C(=O)NCC(=O)N[C@@H](C)C(=O)O)CC[C@]3(C)[C@H](CC[C@@H]4[C@@]5(C)CC[C@H](O)[C@@](C)(CO)[C@@H]5CC[C@]43C)[C@@H]12	µM	32.4

Please examine the following record next.
Request: Query (molecule): C=C(CO)[C@@H]1CC[C@]2(C(=O)OCC3CCCO3)CC[C@]3(C)[C@H](CC[C@@H]4[C@@]5(C)CC[C@H](O)[C@@](C)(CO)[C@@H]5CC[C@]43C)[C@@H]12 (stereo not given in full) ; field requested: IC50
Result: 81.2
